These measurements were taken from ChEMBL document CHEMBL4689842.

# Tested on: Fibroblast
# testName: Multiplex assay against human fibroblast
# Format: toxicity, cell-based
# protocolConditions: 48 h, 10 µM, compound concentration 10 uM, replicate 1
Class field: derived from Population Healthy Nuclei (%); ranges A = under 40%, B = from 40% up to 50%, C = 50% and over

Classify this compound: Cc1cc2c(cc1N1C(=O)c3cccc4c(CCCO)ccc(c34)C1=O)n(C)c(=O)n2C
C

What about this compound? CCc1cc2c(cc1CC)CC(NC[C@H](O)c1ccc(O)c3[nH]c(=O)ccc13)C2 [INDACATEROL]
B

What about this compound? COc1ccc(NS(=O)(=O)c2sc3ccc(Cl)cc3c2C)cc1N1CCNCC1.Cl
B

What about this compound? Cc1nc(Cc2cccc(C(F)(F)F)c2)sc1-c1ccc(C(N)=O)nc1 [TP-024n]
C

What about this compound? CNc1oc(-c2cccc3ccccc23)nc1C#N
A

What about this compound? COc1cc2c(NC3CCN(C(C)C)CC3)nc(N3CCC(F)(F)CC3)nc2cc1OCCCN1CCCC1
B

What about this compound? C1=N/C2=N/c3ccc(OCCN4CCCC4)c(c3)COC/C=C\COCc3cccc(c3)C(=C1)N2
A

What about this compound? CC(C)N1CCC(C)(C)c2cc(C#Cc3ccc(C(=O)O)cc3)ccc21
A

What about this compound? Nc1ccc(C(=O)Nc2cccc(-c3nc(N4CCOCC4)c4oc5ncccc5c4n3)c2)cn1
A

What about this compound? CCC(=O)O[C@]1(C(=O)SCF)[C@H](C)C[C@H]2[C@@H]3C[C@H](F)C4=CC(=O)C=C[C@]4(C)[C@@]3(F)[C@@H](O)C[C@@]21C [FLUTICASONE PROPIONATE]
B

What about this compound? CCCn1c(=O)c2[nH]c(C34CC5CC(CC3C5)C4)nc2n(CCC)c1=O [ROLOFYLLINE]
B

What about this compound? Cl.Cl.Nc1ncnc2c1c(-c1cccc(OCc3ccccc3)c1)cn2[C@H]1C[C@@H](CN2CCC2)C1
A

* * *

# System: HEK-293T
# testName: Multiplex assay against HEK293T
# Format: toxicity, cell-based
# protocolConditions: human, 48 h, 10 µM, compound concentration 10 uM, replicate 2
Exercise: for every item that follows, state its recorded Population Pyknosed Nuclei (%).
Report the value in % with no unit label.

Tell me the measured Population Pyknosed Nuclei (%) of Nc1ccc(C(=O)Nc2cccc(-c3nc(N4CCOCC4)c4oc5ncccc5c4n3)c2)cn1 , please.
64

What about this compound? CCc1cc2c(cc1CC)CC(NC[C@H](O)c1ccc(O)c3[nH]c(=O)ccc13)C2
73

What about this compound? Cl.Cl.Nc1ncnc2c1c(-c1cccc(OCc3ccccc3)c1)cn2[C@H]1C[C@@H](CN2CCC2)C1
48

What about this compound? C1=N/C2=N/c3ccc(OCCN4CCCC4)c(c3)COC/C=C\COCc3cccc(c3)C(=C1)N2
64

What about this compound? CC(C)Oc1ccc(C(=O)N[C@H](CNC(=O)CN(C)C)Cc2ccc(-c3cn4cccc([C@H](C)O)c4n3)cc2)cc1Cl [GSK-923295A]
35

What about this compound? CCCn1c(=O)c2[nH]c(C34CC5CC(CC3C5)C4)nc2n(CCC)c1=O
32

What about this compound? CCn1c(-c2nonc2N)nc2cnc(Oc3cccc(NC(=O)c4ccc(OCCN5CCOCC5)cc4)c3)cc21 [GSK-269962A]
38

What about this compound? O=C(O)c1ccc2cc(-c3ccc(O)c(C45CC6CC(CC(C6)C4)C5)c3)ccc2c1
53

What about this compound? COc1cc(N2CCC(N(C)C)CC2)ccc1Nc1ncc(Cl)c(Nc2ccccc2P(C)(C)=O)n1
74

What about this compound? Nc1nc2c(c(N3CCNCC3)n1)CCC1=C2[C@@H]2CCCC[C@@H]2O1
37

What about this compound? COc1cc2c(NC3CCN(C(C)C)CC3)nc(N3CCC(F)(F)CC3)nc2cc1OCCCN1CCCC1
53

What about this compound? CC(C)N1CCC(C)(C)c2cc(C#Cc3ccc(C(=O)O)cc3)ccc21
2

What about this compound? Cc1cc2c(cc1N1C(=O)c3cccc4c(CCCO)ccc(c34)C1=O)n(C)c(=O)n2C
9
